Assayed system: UniProt:Q05397
Sequence (Q05397 whole entry): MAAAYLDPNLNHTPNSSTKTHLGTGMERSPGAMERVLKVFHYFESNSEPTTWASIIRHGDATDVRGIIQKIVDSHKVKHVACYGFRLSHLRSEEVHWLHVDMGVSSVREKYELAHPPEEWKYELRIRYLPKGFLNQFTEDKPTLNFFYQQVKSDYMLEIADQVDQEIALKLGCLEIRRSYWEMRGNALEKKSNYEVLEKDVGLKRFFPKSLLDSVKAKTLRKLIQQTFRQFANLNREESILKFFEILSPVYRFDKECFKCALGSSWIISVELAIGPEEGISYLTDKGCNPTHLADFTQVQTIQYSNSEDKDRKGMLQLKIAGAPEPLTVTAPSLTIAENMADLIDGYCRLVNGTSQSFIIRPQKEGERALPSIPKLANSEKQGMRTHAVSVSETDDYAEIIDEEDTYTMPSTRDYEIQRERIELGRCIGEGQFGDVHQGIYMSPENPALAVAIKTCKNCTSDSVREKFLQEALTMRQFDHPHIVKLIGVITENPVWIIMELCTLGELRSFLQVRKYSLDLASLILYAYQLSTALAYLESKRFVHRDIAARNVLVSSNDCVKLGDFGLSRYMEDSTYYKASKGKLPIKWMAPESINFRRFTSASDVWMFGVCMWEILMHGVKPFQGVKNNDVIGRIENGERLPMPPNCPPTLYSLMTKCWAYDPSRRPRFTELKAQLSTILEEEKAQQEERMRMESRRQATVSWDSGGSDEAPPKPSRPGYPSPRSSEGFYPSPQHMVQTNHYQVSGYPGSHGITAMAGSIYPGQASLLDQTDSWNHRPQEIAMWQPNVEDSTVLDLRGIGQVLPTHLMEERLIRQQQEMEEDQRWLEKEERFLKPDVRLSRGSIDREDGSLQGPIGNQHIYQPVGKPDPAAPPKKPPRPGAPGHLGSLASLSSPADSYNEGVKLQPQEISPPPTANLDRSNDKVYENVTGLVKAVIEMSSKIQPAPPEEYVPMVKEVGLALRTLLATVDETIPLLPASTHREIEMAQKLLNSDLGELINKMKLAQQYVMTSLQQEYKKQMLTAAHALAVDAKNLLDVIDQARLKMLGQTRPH
Measurement kind: IC50 (nM)
Quick note: give the figure in nM, leave out the unit.

Recorded IC50 (compound Cc1cc(C2CCN(CCCF)CC2)cc2[nH]c(-c3c(NCCn4cc(Cl)cn4)cc[nH]c3=O)nc12 ): 165

----------
Protocol description: AUC in mouse at 20 mg/kg after 4 hrs
Type: ADME, organism-based
Parameters: time < 4 hr, dose 20 mg/kg
Details: plasma
// AUC at 4 h lookup, one value per entry
Quick note: give the figure in µM·h, leave out the unit.

Some molecules with recorded AUC at 4 h:
smiles=Cc1cc(C2CCN(CCCF)CC2)cc2[nH]c(-c3c(NCCn4cc(Cl)cn4)cc[nH]c3=O)nc12 measurement_kind="AUC at 4 h" unit=µM·h reading=3.7
smiles=Cc1cc(C2CCN(CCO)CC2)cc2[nH]c(-c3c(NCCn4cc(Cl)cn4)cc[nH]c3=O)nc12 measurement_kind="AUC at 4 h" unit=µM·h reading=0.1

Recorded AUC at 4 h (molecule COCCN1CCC(c2cc(C)c3nc(-c4c(NCCn5cc(Cl)cn5)cc[nH]c4=O)[nH]c3c2)CC1 ): 1.8

Recorded AUC at 4 h (molecule Cc1cc(C2CCN(C)CC2)cc2[nH]c(-c3c(NCCn4cc(Cl)cn4)cc[nH]c3=O)nc12 ): 0.4

----------
Protocol description: Half life in monkey at 2 mg/kg, iv and 10 mg/kg, po
Type: ADME, organism-based, Macaca mulatta
Details: rhesus monkey, in vivo
Measurement kind: half-life

Recorded half-life (molecule Cc1cc(C2CCN(CCCF)CC2)cc2[nH]c(-c3c(NCCn4cc(Cl)cn4)cc[nH]c3=O)nc12 ): 7.3 h

----------
Protocol description: Cmax in dog at 10 mg/kg, po
Format: ADME, organism-based, Canis lupus familiaris
Design: dose 10 mg/kg, route oral
Details: in vivo
Measurement kind: Cmax
Note: state the figure and append the unit.

Recorded Cmax (compound Cc1cc(C2CCN(CCCF)CC2)cc2[nH]c(-c3c(NCCn4cc(Cl)cn4)cc[nH]c3=O)nc12 ): 270 nM

----------
Assayed system: Cytochrome P450 2C19 (Homo sapiens, UniProt P33261)
Sequence (P33261 whole entry): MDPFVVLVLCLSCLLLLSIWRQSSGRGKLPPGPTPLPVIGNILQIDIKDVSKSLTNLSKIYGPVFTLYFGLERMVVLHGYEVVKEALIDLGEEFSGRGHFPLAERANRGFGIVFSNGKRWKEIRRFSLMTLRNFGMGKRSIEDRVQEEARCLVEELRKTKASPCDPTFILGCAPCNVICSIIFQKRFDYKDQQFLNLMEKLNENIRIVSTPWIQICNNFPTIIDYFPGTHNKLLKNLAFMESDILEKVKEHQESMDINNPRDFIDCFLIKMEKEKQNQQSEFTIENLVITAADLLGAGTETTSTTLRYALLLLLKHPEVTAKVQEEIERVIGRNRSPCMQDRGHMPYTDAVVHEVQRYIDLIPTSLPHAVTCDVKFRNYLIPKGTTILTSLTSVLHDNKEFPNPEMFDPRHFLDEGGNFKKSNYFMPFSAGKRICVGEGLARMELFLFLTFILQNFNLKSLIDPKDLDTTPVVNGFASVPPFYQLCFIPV
Protocol description: Inhibition of human recombinant CYP2C19 in human liver microsomes
Measurement kind: pIC50
The quantity pIC50 is defined as the negative base-10 logarithm of the molar concentration.

Cytochrome P450 2C19 (Homo sapiens, UniProt P33261) data for Cc1cc(C2CCN(CCCF)CC2)cc2[nH]c(-c3c(NCCn4cc(Cl)cn4)cc[nH]c3=O)nc12 ; its pIC50: 4.47

----------
Protocol description: Half life in rat at 2 mg/kg, iv and 10 mg/kg, po
Format: ADME, organism-based
Details: in vivo
Measurement kind: half-life (h)
Quick note: give the figure in h, leave out the unit.

Recorded half-life (compound Cc1cc(C2CCN(CCCF)CC2)cc2[nH]c(-c3c(NCCn4cc(Cl)cn4)cc[nH]c3=O)nc12 ): 4

----------
Assayed system: Mitogen-activated protein kinase 14 (Homo sapiens)
Sequence (Q16539 whole entry): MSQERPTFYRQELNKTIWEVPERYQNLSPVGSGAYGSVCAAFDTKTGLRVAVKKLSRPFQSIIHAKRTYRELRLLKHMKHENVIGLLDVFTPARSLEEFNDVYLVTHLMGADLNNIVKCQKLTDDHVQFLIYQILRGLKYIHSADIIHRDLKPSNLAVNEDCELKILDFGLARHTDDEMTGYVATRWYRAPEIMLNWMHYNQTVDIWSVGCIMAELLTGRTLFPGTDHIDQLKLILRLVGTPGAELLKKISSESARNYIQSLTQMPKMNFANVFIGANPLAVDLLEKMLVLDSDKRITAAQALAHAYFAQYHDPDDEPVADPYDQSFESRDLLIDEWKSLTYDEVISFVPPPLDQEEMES
Protocol description: Inhibition of p38alpha
Measurement kind: pIC50
The quantity pIC50 is defined as the negative base-10 logarithm of the molar concentration.

Recorded pIC50 (molecule Cc1cc(C2CCN(CCCF)CC2)cc2[nH]c(-c3c(NCCn4cc(Cl)cn4)cc[nH]c3=O)nc12 ): 4.51

----------
Protocol description: Half life in dog at 2 mg/kg, iv and 10 mg/kg, po
Type: ADME, organism-based, Canis lupus familiaris
Details: in vivo
Measurement kind: half-life (min)
Quick note: give the figure in min, leave out the unit.

Recorded half-life (molecule Cc1cc(C2CCN(CCCF)CC2)cc2[nH]c(-c3c(NCCn4cc(Cl)cn4)cc[nH]c3=O)nc12 ): 630

----------
Assayed system: Protein kinase C delta type (Homo sapiens)
Sequence (Q05655 whole entry): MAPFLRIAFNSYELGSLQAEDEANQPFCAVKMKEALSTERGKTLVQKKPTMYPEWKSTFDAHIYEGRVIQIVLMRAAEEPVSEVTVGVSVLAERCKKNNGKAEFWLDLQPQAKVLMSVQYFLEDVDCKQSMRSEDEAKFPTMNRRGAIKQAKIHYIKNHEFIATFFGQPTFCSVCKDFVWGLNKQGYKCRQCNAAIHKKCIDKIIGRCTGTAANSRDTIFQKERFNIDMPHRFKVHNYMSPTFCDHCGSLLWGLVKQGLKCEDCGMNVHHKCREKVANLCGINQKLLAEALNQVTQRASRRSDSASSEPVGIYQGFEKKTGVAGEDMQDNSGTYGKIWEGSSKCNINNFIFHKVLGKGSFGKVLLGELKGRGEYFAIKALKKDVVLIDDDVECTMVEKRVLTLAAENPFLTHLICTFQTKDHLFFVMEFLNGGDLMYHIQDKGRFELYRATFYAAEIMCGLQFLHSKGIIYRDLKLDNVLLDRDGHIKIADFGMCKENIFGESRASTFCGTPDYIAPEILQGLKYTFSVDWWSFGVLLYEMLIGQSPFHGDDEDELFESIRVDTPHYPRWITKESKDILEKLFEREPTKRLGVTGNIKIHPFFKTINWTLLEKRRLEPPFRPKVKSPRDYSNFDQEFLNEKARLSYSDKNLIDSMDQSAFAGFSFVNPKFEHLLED
Protocol description: Inhibition of PKCdelta
Measurement kind: pIC50
The quantity pIC50 is defined as the negative base-10 logarithm of the molar concentration.

Protein kinase C delta type (Homo sapiens) data for Cc1cc(C2CCN(CCCF)CC2)cc2[nH]c(-c3c(NCCn4cc(Cl)cn4)cc[nH]c3=O)nc12 ; its pIC50: 4.69

----------
// Papp lookup, one value per entry
Protocol description: Apparent permeability across human CaCo2 cells
Type: ADME, cell-based
Details: Caco-2
Quick note: give the figure in ×10⁻⁶ cm/s, leave out the unit.

smiles=Cc1cc(C2CCN(CCCF)CC2)cc2[nH]c(-c3c(NCCn4cc(Cl)cn4)cc[nH]c3=O)nc12 reading=10.9

Recorded Papp (compound Cc1cc(N2CCOCC2)cc2[nH]c(-c3c(NC[C@@H](O)c4cccc(Cl)c4)cc[nH]c3=O)nc12 ): 1.8

----------
Protocol description: Inhibition of His-tagged GSK3
Measurement kind: IC50 (µM)
Quick note: give the figure in µM, leave out the unit.

Recorded IC50 (molecule Cc1cc(C2CCN(CCCF)CC2)cc2[nH]c(-c3c(NCCn4cc(Cl)cn4)cc[nH]c3=O)nc12 ): 8.56

----------
Assayed system: Epidermal growth factor receptor (Homo sapiens)
Sequence (P00533 whole entry): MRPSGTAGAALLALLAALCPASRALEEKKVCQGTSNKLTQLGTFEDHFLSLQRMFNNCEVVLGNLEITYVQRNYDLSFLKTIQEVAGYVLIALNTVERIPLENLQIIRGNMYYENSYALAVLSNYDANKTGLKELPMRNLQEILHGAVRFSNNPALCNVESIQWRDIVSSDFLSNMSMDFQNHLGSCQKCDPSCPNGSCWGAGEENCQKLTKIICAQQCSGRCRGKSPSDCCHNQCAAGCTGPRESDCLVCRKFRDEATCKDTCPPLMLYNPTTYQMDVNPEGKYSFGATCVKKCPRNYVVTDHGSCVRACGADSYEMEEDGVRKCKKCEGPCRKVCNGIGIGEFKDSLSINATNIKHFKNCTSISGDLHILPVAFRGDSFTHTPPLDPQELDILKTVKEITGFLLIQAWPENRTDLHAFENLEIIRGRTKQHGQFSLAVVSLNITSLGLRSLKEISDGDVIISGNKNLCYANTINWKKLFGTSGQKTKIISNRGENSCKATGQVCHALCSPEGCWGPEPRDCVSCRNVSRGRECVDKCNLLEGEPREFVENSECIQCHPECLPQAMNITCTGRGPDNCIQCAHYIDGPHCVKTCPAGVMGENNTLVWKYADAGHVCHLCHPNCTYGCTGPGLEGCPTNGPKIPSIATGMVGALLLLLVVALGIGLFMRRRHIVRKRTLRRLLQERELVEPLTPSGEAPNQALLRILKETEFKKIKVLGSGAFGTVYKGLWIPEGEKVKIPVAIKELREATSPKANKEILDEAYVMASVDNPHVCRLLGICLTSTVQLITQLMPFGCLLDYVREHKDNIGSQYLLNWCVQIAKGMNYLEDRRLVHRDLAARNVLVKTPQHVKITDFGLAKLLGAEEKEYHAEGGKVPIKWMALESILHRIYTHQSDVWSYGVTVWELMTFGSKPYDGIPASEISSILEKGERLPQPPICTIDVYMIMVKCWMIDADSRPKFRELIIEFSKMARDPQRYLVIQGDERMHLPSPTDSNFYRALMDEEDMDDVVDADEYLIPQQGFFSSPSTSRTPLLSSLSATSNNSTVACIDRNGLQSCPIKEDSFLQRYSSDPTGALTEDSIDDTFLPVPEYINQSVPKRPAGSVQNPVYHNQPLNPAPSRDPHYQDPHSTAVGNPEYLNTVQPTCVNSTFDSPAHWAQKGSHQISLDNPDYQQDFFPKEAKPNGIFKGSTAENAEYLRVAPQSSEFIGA
Measurement kind: IC50
Note: state the figure and append the unit.

Epidermal growth factor receptor (Homo sapiens) data for Cc1cc(C2CCN(CCCF)CC2)cc2[nH]c(-c3c(NCCn4cc(Cl)cn4)cc[nH]c3=O)nc12 ; its IC50: 21 µM

----------
Protocol description: Protein binding in mouse plasma at 10 uM by equilibrium dialysis
Type: ADME, cell-free
Details: read-out: PPB (converted)
Measurement kind: fraction unbound at 10 µM
The answer should be a number; do not append a unit.

smiles=COCCN1CCC(c2cc(C)c3nc(-c4c(NCCn5cc(Cl)cn5)cc[nH]c4=O)[nH]c3c2)CC1 reading=0.038

Recorded fraction unbound at 10 µM (compound Cc1cc(C2CCN(CCCF)CC2)cc2[nH]c(-c3c(NCCn4cc(Cl)cn4)cc[nH]c3=O)nc12 ): 0.131

----------
Protocol description: Protein binding in human plasma at 10 uM
Type: ADME, cell-free
Details: read-out: PPB
Measurement kind: fraction unbound at 10 µM

Recorded fraction unbound at 10 µM (compound Cc1cc(N2CCOCC2)cc2[nH]c(-c3c(NC[C@@H](O)c4cccc(Cl)c4)cc[nH]c3=O)nc12 ): < 0.002

----------
Protocol description: Total clearance in dog at 2 mg/kg, iv and 10 mg/kg, po
Format: ADME, organism-based, Canis lupus familiaris
Details: in vivo
Measurement kind: clearance (mL/min/kg)
Quick note: give the figure in mL/min/kg, leave out the unit.

Recorded clearance (compound Cc1cc(C2CCN(CCCF)CC2)cc2[nH]c(-c3c(NCCn4cc(Cl)cn4)cc[nH]c3=O)nc12 ): 23

----------
Protocol description: Volume of distribution at steady state in rat at 2 mg/kg, iv and 10 mg/kg, po
Type: ADME, organism-based
Details: in vivo, read-out: Vdss
Measurement kind: Vd (L/kg)
Quick note: give the figure in L/kg, leave out the unit.

Recorded Vd (compound Cc1cc(C2CCN(CCCF)CC2)cc2[nH]c(-c3c(NCCn4cc(Cl)cn4)cc[nH]c3=O)nc12 ): 20

----------
Protocol description: Cmax in monkey at 10 mg/kg, po
Type: ADME, organism-based, Macaca mulatta
Design: dose 10 mg/kg, route oral
Details: rhesus monkey, in vivo
Measurement kind: Cmax (nM)
Quick note: give the figure in nM, leave out the unit.

Recorded Cmax (compound Cc1cc(C2CCN(CCCF)CC2)cc2[nH]c(-c3c(NCCn4cc(Cl)cn4)cc[nH]c3=O)nc12 ): 400

----------
Assayed system: Tyrosine-protein kinase ITK/TSK (Homo sapiens, UniProt Q08881)
Sequence (Q08881 whole entry): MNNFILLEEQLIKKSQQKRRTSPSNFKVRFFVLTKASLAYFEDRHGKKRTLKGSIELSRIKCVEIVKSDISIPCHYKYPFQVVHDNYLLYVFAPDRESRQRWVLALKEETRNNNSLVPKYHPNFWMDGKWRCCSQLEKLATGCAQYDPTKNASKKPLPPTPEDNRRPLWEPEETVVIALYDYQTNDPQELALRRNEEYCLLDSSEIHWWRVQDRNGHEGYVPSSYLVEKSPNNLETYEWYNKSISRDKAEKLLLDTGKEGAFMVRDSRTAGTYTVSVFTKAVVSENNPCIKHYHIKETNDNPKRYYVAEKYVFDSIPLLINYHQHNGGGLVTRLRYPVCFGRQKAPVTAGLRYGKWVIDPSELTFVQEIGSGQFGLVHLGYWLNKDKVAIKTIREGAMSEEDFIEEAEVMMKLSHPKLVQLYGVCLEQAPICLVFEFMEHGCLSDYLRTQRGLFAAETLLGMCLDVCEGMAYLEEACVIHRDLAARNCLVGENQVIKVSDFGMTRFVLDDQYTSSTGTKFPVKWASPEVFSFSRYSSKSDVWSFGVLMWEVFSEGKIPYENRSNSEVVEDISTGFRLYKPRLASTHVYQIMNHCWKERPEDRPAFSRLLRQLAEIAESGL
Measurement kind: IC50 (nM)
Quick note: give the figure in nM, leave out the unit.

Recorded IC50 (compound Cc1cc(C2CCN(CCCF)CC2)cc2[nH]c(-c3c(NCCn4cc(Cl)cn4)cc[nH]c3=O)nc12 ): 370
